Biological target: KRAS-G12D protein (Homo sapiens, UniProt P01116, G12D)
Construct: host or cells: Aspc-1 cells
Sequence (P01116 1-188 isoform P01116-2 G12D): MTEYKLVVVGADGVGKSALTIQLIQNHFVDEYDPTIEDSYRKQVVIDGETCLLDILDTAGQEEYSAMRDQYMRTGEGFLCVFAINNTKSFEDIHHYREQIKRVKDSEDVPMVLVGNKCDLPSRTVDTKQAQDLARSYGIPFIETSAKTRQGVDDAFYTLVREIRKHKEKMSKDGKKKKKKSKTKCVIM
Assay: KRAS-G12D protein degradation study in Aspc-1 cells (western blot)
Assay type: cell-based
Conditions: ASPC1, 24 h, Aspc-1 cells treated with 0.1 μM compound, 24 hours; read-out: Rate of protein degradation (KRAS^G12D)
Items are presented alongside their recorded inhibition at 0.1 µM.

# count of solved cases: 5
CCc1c(F)ccc2cc(O)cc(-c3ncc4c(N5CC6CCC(C5)N6)nc(OCC56CCCN5[C@@H](COC(=O)NCCOCCOCCC(=O)N[C@H](C(=O)N5C[C@H](O)C[C@H]5C(=O)N[C@@H](C)c5ccc(-c7scnc7C)cc5)C(C)(C)C)CC6)nc4c3F)c12 (some centres unmarked) | 11 to 30%
C#Cc1c(F)ccc2cc(O)cc(-c3ncc4c(N5CC6CCC(C5)N6)nc(O[C@H]5CCN(CCCCCCCCCCC(=O)N[C@H](C(=O)N6C[C@H](O)C[C@H]6C(=O)N[C@@H](C)c6ccc(-c7scnc7C)cc6)C(C)(C)C)C5)nc4c3F)c12 | > 60%
C#Cc1c(F)ccc2cc(O)cc(-c3ncc4c(N5CC6CCC(C5)N6)nc(OC5CCN(CCCCCCCCCCOc6cc(-c7ncsc7C)ccc6CNC(=O)[C@@H]6C[C@@H](O)CN6C(=O)[C@@H](NC(=O)C6(F)CC6)C(C)(C)C)CC5)nc4c3F)c12 | ≤ 10%
C#Cc1c(F)ccc2cc(O)cc(-c3ncc4c(N5CC6CCC(C5)N6)nc(OC5CCN(CC(=O)N6CCC7(CC6)CC(N6CCC(c8ccc(NC9CCC(=O)NC9=O)cc8F)CC6)C7)CC5)nc4c3F)c12 (centres unmarked) | > 60%
C#Cc1c(F)ccc2cc(O)cc(-c3ncc4c(N5CC6CCC(C5)N6)nc(OCC5(CN6CCN(CC7CCN(c8ccc9c(c8)C(=O)N(C8CCC(=O)NC8=O)C9=O)CC7)CC6)CC5)nc4c3F)c12 (centres unmarked) | 31 to 60%

Which inhibition at 0.1 µM value belongs to C#Cc1c(F)ccc2cc(O)cc(-c3ncc4c(N5CC6CCC(C5)N6)nc(OCC5(CN6CCN(CC7CCN(c8ccc(NC9CCC(=O)NC9=O)cc8F)CC7)CC6)CC5)nc4c3F)c12 (centres unmarked) ? 31 to 60%

// returns reported inhibition at 0.1 µM for input C#Cc1c(F)ccc2cc(O)cc(-c3ncc4c(N5CC6CCC(C5)N6)nc(OCC56CCCN5[C@@H](COC(=O)NCCCCCCCCCC(=O)N[C@H](C(=O)N5C[C@H](O)C[C@H]5C(=O)N[C@@H](C)c5ccc(-c7scnc7C)cc5)C(C)(C)C)CC6)nc4c3F)c12 (some centres unmarked) 31 to 60%

Using the record for C#Cc1c(F)ccc2cc(O)cc(-c3ncc4c(N5CC6CCC(C5)N6)nc(O[C@H]5CCN(CCCCCCCCCCCC(=O)N[C@H](C(=O)N6C[C@H](O)C[C@H]6C(=O)N[C@@H](C)c6ccc(-c7scnc7C)cc6)C(C)(C)C)C5)nc4c3F)c12 , report its inhibition at 0.1 µM. 31 to 60%

---

Each record here notes measured inhibition at 1 µM.
Target: KRAS-G12D protein (Homo sapiens, UniProt P01116, G12D)
Construct: host or cells: Aspc-1 cells
Assay: KRAS-G12D protein degradation study in Aspc-1 cells (western blot)
Type: cell-based
Details: ASPC1, 24 h, Aspc-1 cells treated with 1 μM compound, 24 hours; read-out: Rate of protein degradation (KRAS^G12D)

Consider the following illustrative entries.
C#Cc1c(F)ccc2cc(O)cc(-c3ncc4c(N5CC6CCC(C5)N6)nc(OCCCN5CCN(CCCCCCC(=O)N[C@H](C(=O)N6C[C@H](O)C[C@H]6C(=O)NCc6ccc(-c7scnc7C)cc6)C(C)(C)C)CC5)nc4c3F)c12 [Compound 29] | 31 to 60%
CCc1c(F)ccc2cc(O)cc(-c3ncc4c(N5CC6CCC(C5)N6)nc(OCC56CCCN5[C@@H](COC(=O)NCCOCCOCCC(=O)N[C@H](C(=O)N5C[C@H](O)C[C@H]5C(=O)N[C@@H](C)c5ccc(-c7scnc7C)cc5)C(C)(C)C)CC6)nc4c3F)c12 (stereo partly shown) [Compound 58] | 31 to 60%
C#Cc1c(F)ccc2cc(O)cc(-c3ncc4c(N5CC6CCC(C5)N6)nc(OCCCN5CCN(CCCCCCCC(=O)N[C@H](C(=O)N6C[C@H](O)C[C@H]6C(=O)NCc6ccc(-c7scnc7C)cc6)C(C)(C)C)CC5)nc4c3F)c12 [Compound 31] | > 60%

Query compound follows.
Dear colleague, I am looking for the recorded inhibition at 1 µM of the following compound: CCc1c(F)ccc2cc(O)cc(-c3ncc4c(N5CC6CCC(C5)N6)nc(OCC56CCCN5[C@@H](COC(=O)NCCCCCCCC(=O)N[C@H](C(=O)N5C[C@H](O)C[C@H]5C(=O)N[C@@H](C)c5ccc(-c7scnc7C)cc5)C(C)(C)C)CC6)nc4c3F)c12 (stereo partly shown) [Compound 68] > 60%

---

Let's look at some compounds and their measured inhibition at 0.1 µM.
Biological target: KRAS-G12D protein (Homo sapiens, UniProt P01116, G12D)
Construct: host or cells: Aspc-1 cells
Test: KRAS-G12D protein degradation study in Aspc-1 cells (western blot)
Type: cell-based
Settings: ASPC1, 24 h, Aspc-1 cells treated with 0.1 μM compound, 24 hours; read-out: Rate of protein degradation (KRAS^G12D)

Below, 4 compounds whose answers are already recorded.
C#Cc1c(F)ccc2cc(O)cc(-c3ncc4c(N5CC6CCC(C5)N6)nc(OC[C@@H]5C[C@@H](NC(=O)C6(C(=O)N7CCC(c8ccc9c(C%10CCC(=O)NC%10=O)nn(C)c9c8)CC7)CC6)CN5C)nc4c3F)c12 (stereo in doubt) | 11 to 30%
C#Cc1c(F)ccc2cc(O)cc(-c3ncc4c(N5CC6CCC(C5)N6)nc(OCC56CCCN5[C@@H](COC(=O)N5CCC(c7ccc8c(C9CCC(=O)NC9=O)nn(C)c8c7)CC5)CC6)nc4c3F)c12 (some centres unmarked) | 31 to 60%
C#Cc1c(F)ccc2cc(O)cc(-c3ncc4c(N5CC6CCC(C5)N6)nc(OCC5(CN6CCN(C7CC(C(=O)N8CCC(c9ccc%10c(C%11CCC(=O)NC%11=O)nn(C)c%10c9)CC8)C7)CC6)CC5)nc4c3F)c12 (centres unmarked) | > 60%
C#Cc1c(F)ccc2cc(O)cc(-c3ncc4c(N5CC6CCC(C5)N6)nc(OCC5CCN(CCCCCCCCCCC(=O)N6CCC(c7ccc8c(C9CCC(=O)NC9=O)nn(C)c8c7)CC6)C5)nc4c3F)c12 (centres unmarked) | > 60%

// switching to the query compound
Entry under review: C#Cc1c(F)ccc2cc(O)cc(-c3ncc4c(N5CC6CCC(C5)N6)nc(OC[C@@H]5C[C@@H](NC(=O)CCCCCCCCCCC(=O)N[C@H](C(=O)N6C[C@H](O)C[C@H]6C(=O)N[C@@H](C)c6ccc(-c7scnc7C)cc6)C(C)(C)C)CN5C)nc4c3F)c12 . Reported inhibition at 0.1 µM? ≤ 10%

---

Parameter: inhibition at 0.1 µM. Scope: all listed entries.
Target: KRAS-G12D protein (Homo sapiens, UniProt P01116, G12D)
Construct: host or cells: Aspc-1 cells
Assay: KRAS-G12D protein degradation study in Aspc-1 cells (western blot)
Format: cell-based
Conditions: ASPC1, 24 h, Aspc-1 cells treated with 0.1 μM compound, 24 hours; read-out: Rate of protein degradation (KRAS^G12D)

C#Cc1c(F)ccc2cc(O)cc(-c3ncc4c(N5CC6CCC(C5)N6)nc(OCCCN5CCC(C(=O)N6CCC(c7ccc8c(C9CCC(=O)NC9=O)nn(C)c8c7)CC6)CC5)nc4c3F)c12 (stereo not shown) [Compound 72] | > 60%
CCc1c(F)ccc2cc(O)cc(-c3ncc4c(N5CC6CCC(C5)N6)nc(OCC56CCCN5[C@@H](COC(=O)NCCCCCCCC(=O)N[C@H](C(=O)N5C[C@H](O)C[C@H]5C(=O)N[C@@H](C)c5ccc(-c7scnc7C)cc5)C(C)(C)C)CC6)nc4c3F)c12 (stereo partly shown) [Compound 68] | 31 to 60%
C#Cc1c(F)ccc2cc(O)cc(-c3ncc4c(N5CC6CCC(C5)N6)nc(OCCCN5CCN(C(=O)CN6CCC(c7ccc8c(C9CCC(=O)NC9=O)nn(C)c8c7)CC6)CC5)nc4c3F)c12 (stereo not shown) [Compound 33] | 31 to 60%

Okay, next one:
Lookup: inhibition at 0.1 µM / KRAS-G12D protein (Homo sapiens, UniProt P01116, G12D) / C#Cc1c(F)ccc2cc(O)cc(-c3ncc4c(N5CC6CCC(C5)N6)nc(OCCCN5CCC(C(=O)N6CCC(N7CCC(c8ccc9c(C%10CCC(=O)NC%10=O)nn(C)c9c8)CC7)CC6)CC5)nc4c3F)c12 (stereo not shown) [Compound 75] > 60%
